target: C-IAP2 BIR3 (Homo sapiens, UniProt Q13489); construct: 0.4 μM C-IAP-2 BIR3; assay: Fluorescence polarization peptide binding assay, C-IAP2 BIR3; settings: determined from the IC50 values (procedure of Keating et al.)
Sequence (Q13489 238-349 limits assumed): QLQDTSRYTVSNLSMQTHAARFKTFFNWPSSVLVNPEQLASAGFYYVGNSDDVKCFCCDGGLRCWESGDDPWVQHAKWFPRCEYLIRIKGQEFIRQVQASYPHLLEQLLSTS
pKi: −log10 of the molar value.
Metric: pKi

# count of solved cases: 3
Q: Looking for the measured pKi of "CN[C@@H](C)C(=O)N[C@H](C(=O)N[C@H](C(=O)NCC(c1ccccc1)c1ccccc1)C(F)(F)F)C1CCCCC1" , can you help?
A: 6.38

Q: Can you check "CN[C@@H](C)C(=O)N[C@H](C(=O)N[C@H](C(=O)Nc1snnc1-c1ccccc1)C(C)(C)SCNC(C)=O)C1CCCCC1" next?
A: 7.13

Q: Can you check "CN[C@@H](C)C(=O)N[C@H](C(=O)N[C@H](C(=O)Nc1snnc1-c1ccccc1)C(F)(F)F)C1CCCCC1" next?
A: 6.12

(a) CN[C@@H](C)C(=O)N[C@H](C(=O)N[C@H](C(=O)Nc1snnc1-c1ccccc1)C(C)(C)SCc1ccc(OC)cc1)C1CCCCC1
(b) CN[C@@H](C)C(=O)N[C@H](C(=O)N[C@H](C(=O)NCC(c1ccccc1)c1ccccc1)C(C)(C)SCNC(C)=O)C1CCCCC1
(c) CN[C@@H](C)C(=O)N[C@H](C(=O)N[C@H](C(=O)Nc1snnc1-c1ccccc1)C(C)(C)SC)C1CCCCC1
Q: Returns the items ordered by pKi, from maximum to minimum. Please list the labels in the order you were asked to rank them.
A: c, a, b

(A) CN[C@@H](C)C(=O)N[C@H](C(=O)N(C)[C@H](C(=O)Nc1snnc1-c1ccccc1)C(C)C)C1CCCCC1
(B) CN[C@@H](C)C(=O)N[C@H](C(=O)N[C@H](c1nc(-c2ccc(F)c3ccccc23)cs1)C(C)(C)SCc1ccc(OC)cc1)C1CCCCC1
Q: I would appreciate it if you could say which entry, A or B , has the lower pKi value. Respond using the label that marks the chosen record.
A: B

These data points were gathered from patent US20110046066A1.
